# credit: PubChem BioAssay (NCI)

tested on: NCI-H23 lung; assay: NCI-60 one-dose screen, 48 h (100 = growth as untreated, 0 = no growth, -100 = all killed); conditions: 10 µM unless noted
The panel holds about 83,000 compounds, 20% with a hit somewhere; the sample as a whole holds those more often.
Rule: growth below 90% gives 1, anything at or above gives -1.

Item CO/N=C(/C)c1ccc(NC(=O)CSc2nnc(-c3ccncc3)n2-c2ccccc2)cc1 : growth beneath 90%, strictly?
1

====

Reported growth is given for each of the following compounds.
system: NCI-H23 lung; experiment: NCI-60 one-dose screen, 48 h (100 = growth as untreated, 0 = no growth, -100 = all killed); conditions: 10 µM unless noted
The panel holds about 83,000 compounds, 20% with a hit somewhere; the sample as a whole holds those more often.
The reply should contain only the number, in %.

Below, 6 compounds whose answers are already recorded.
| compound | tgt | unitAbbreviation | quantitativeReadout |
| --- | --- | --- | --- |
| O=C(CSc1nnc2n1S(=O)(=O)c1ccccc1N2c1ccccc1)Nc1nc2ccc(F)cc2s1 | NCI-H23 lung | % | 80.3 |
| CNc1nc(S(=O)c2ccc(C#N)cc2)nc2ccccc12 (configuration not stated) | NCI-H23 lung | % | 78.4 |
| COCCNC(=O)c1ccc(-c2nc3ccc4[nH]ncc4c3c3c2CCCC3)cc1 | NCI-H23 lung | % | 43.5 |
| COc1ccc(OC)c(C(=O)/C=C/c2cc3c(c(OC)c2OC)OCO3)c1 | NCI-H23 lung | % | 57.8 |
| O=CC1(C2(C=O)c3ccccc3-c3ccccc32)c2ccccc2-c2ccccc21 | NCI-H23 lung | % | -28.8 |
| CC(C)=CCC[C@](C)(O)[C@H]1CC[C@]2(C)[C@@H]1CC[C@@H]1[C@@]3(C)Cc4nccnc4C(C)(C)[C@@H]3CC[C@]12C | NCI-H23 lung | % | 66.9 |

Quick one: growth of O=[N+]([O-])/C(=C/C=C/c1ccccc1)c1ccccc1 ?
75.5

Consider the compound shown here: COC(=O)c1c2c(c(C)[n+]([O-])c1C)C(=O)C=C(NCc1ccc(OC)cc1)C2=O What is its recorded growth?
-38.8

// growth lookup, key: COc1cc(OC)cc(C2=C3CC[C@@H]4[C@H](CC[C@]5(C)C(=O)CC[C@@H]45)C3=CC3C(O)c4cccnc4N4C(=O)COC234)c1 (some centres not stated)
98.6

Could you share which growth value was measured for CCN(CC)CCSc1nc(-c2ccccc2)c(C#N)c(=O)[nH]1 ?
68.9

Please report the recorded growth for COc1cc(CNS(=O)(=O)c2ccc(C)cc2)ccc1OCc1cn(-c2ccc(F)cc2)nn1 .
79.6

Consider the compound COC(=O)c1cc(-c2ccccc2)[nH]c1N/N=C/c1c(Cl)cccc1Cl and give its measured growth.
14.2
